Reference for the values: patent US7262204B2

Molecular target: CCR4 (Homo sapiens)
Sequence (P51679 1-360): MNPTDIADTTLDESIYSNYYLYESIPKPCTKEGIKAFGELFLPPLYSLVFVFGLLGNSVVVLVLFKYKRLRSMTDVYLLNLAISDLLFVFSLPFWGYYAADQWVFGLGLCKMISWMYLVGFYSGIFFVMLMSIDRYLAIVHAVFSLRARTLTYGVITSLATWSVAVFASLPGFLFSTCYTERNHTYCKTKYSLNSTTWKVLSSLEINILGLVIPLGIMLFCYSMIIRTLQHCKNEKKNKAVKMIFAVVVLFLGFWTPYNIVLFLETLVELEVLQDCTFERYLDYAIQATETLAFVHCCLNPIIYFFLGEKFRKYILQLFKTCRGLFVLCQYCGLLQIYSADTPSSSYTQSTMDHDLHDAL
pIC50: −log10 of the molar value.
READOUT NAME: pIC50

CHEM SMILES	pIC50
CC(C)CN(Cc1csc(Nc2cccc3ccccc23)n1)CC(C)C	< 6.00

Turning now to a further record.
Please fill in: pIC50 reported for "Clc1ccc2nc(Nc3cccc4ccccc34)sc2c1" = > 6.00
